Experiment: 14C-mannitol permeability (monolayer integrity) in Caco-2 cells
Format: in vitro ADME, human
Details: human, Caco-2 cells, read-out: apparent permeability (Papp)
Protocol: The human intestinal epithelial cell line, LS-180 was purchased from American Type Culture Collection (ATCC) (Manassas, VA, USA) and grown in Minimum Essential Medium supplemented with 10% FBS. The Caco-2 cells were obtained from ATCC. […] The integrity of the monolayers was assessed by measuring transepithelial electrical resistance (TEER) using a World Precision Instrument, EVOM (Sarasota, FL, USA) and evaluating ^14C-mannitol transport. […]
assay.metric: Papp (×10⁻⁶ cm/s)
Provide only the numeric value, understood in ×10⁻⁶ cm/s.

query: Indicate the recorded Papp value for this compound: `OC[C@@H](O)[C@@H](O)[C@H](O)[C@H](O)CO`
result: 2.09

The values you see were collected from paper PMC10830684.
